// provenance: the supplement of paper PMC9170038

// reported apparent KD of K4 kissing-loop reporter for each item listed
# Test system: K4 kissing-loop RNA reporter;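 note: bound reporter read as fluorescence of individual clusters on recovered sequencing chips by microscopy, with normalized cluster intensities fitted with a binding model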
# ASSAY_DETAILS: apparent KD of K4 kissing-loop reporter; higher = weaker reporter binding
# MEASUREMENT_CONDITIONS: Eterna round: R107; input ligand: FMN 200 uM

| BIOSEQUENCE | apparent KD of K4 kissing-loop reporter |
| --- | --- |
| UUGUUUGGUUGAGAGGUUGGGCGAGAUGAUACCAGUAUAUAAGAAUACCCUUGGCAGCAUAAGAAAGAUAUAGUGAUGUUGUAUA [SSTheophA.M] | 520 nM |
| GGAGUUACCUGGGAUACCAGCCGGAGGCCCAGAGCUCGGAGUGAUGUUCUGGGAUGUUUCGGCCCUUGGCAGCUCUGGGUCUCCC [#2 Exclusion - Theophylline B Attempt #6 (HarryS)] | 1520 nM |
| GUAGAUAGGCAACAUCCCUAGUCUACAGACUAGGAUAUCAGGAAACUGAGAAGGAGUCUCCUUGCAGUGAUGUUGCAAGAAUAAU [[F]''-[K]'-[F]'-[F1]-[F2]-[K1]-[K2]_Design5] | 185 nM |
| CAUUCGAAAUGCAGUGAUGUUGCAACUGAUACCAGUAUCGAAAGAUACCCUUGGCAGCGGAAAACCGCUACGUUUUUUUUGAAUG [Ex Theophylline A K4 24] | 191 nM |
| UAAUUUAUGUCUUUAAUAUAAUUUUCAGAUACCAGUGAUUAUUAACACCCUUGGCAGCUGUAUAGAGUGAUGUUCUUAUGCUUAA [JR_ExcTheophyA_Sub009] | 213 nM |
| CCCAAAAUAUGCAGUGAUGUUGCAACCGAUACCAGUAUCGAAAGAUACCCUUGGCAGCGGAAAACCGCAACGUAAUUUAAAAGGG [Ex Theophylline A K4 16] | 204 nM |
| GGAGGCCAGGCCUGCGAAGUGAUGUUUUGACGAGGACCGGUACGGCCGCCACUCGAAUGUUCUAUCAUCGUACGAACUUCUGCGU [theeternabot_exclusion_KL_Trp_A_26] | 593 nM |
| AAGGCCACGAGAAGGAGCGUGCUAUGGAGUGAUGUUCCAAUGUAGACCUAAGGUCUACAAGCACAGGUAGGUCGCUCGUGGUCAA [Omei KL Arginine B SS A v2] | 102 nM |
| UCGAUGGUCAGCGAUACCAGCCCAGUGAUGUUGGGCACAUGGUUGCGGAAAAUCCCAUUGGGCCCUUGGCAGCGCUUGCAUGGGU [Titiquesan] | 130 nM |
| AAACAGCACUGGGAGUGAUGUUCUCAGUGACGAGGACCGGUACGGCCGCCACUCGCGAGAGAACUAGUCUAGACUUGACUGCAUA [Excl Tryptophan A V15] | 181 nM |
| UGAUAGGACAGAAGGAGCGGAAGUGAUGUUUCCAAAAGGAGAGGUCGACAAAGUCGACCCUUCCAGGUAGGUCGCUGUCCUAUCU [ArgBX 10 #Palindromic #SwitchBubble #StaticStem] | 95.3 nM |
| AUACGUUUAAGUGAUACCAGACAUGUGAGUGAUGUUUACAUAUAUAUUUAAUAUUUAGCUGUCCCUUGGCAGCACAGUUUAUUUA [JR_ExcTheophyB_Sub001] | 350 nM |
| UACCUAUUAUUAACACUAUAUACAACUGAAGGAGCGACAAUAAAGUCAGGUAGGUCGCAGAAUUAAUGAGUGAUGUUCAUUUUUA [JR_ExcArginiA_Sub014] | 84.3 nM |
| AAGCCAGUGAUGUUGGCAAAAUAAACUGAAGGAGCGCGUGAAAACGCAGGUAGGUCGCAGAACCUUGCCAACUAACACGAAAGUG [Ex Arginine A K4 19] | 268 nM |
| AAAUAAAGCAGUCAGCCAGUGAUGUUGGAAGGAGCGUGCGAAAGCACAGGUAGGUCGCCAAAACCUAAUACUGGCUGCUAAAUAA [#SwitchBubble 1 #K4Early] | 979 nM |
| ACCUAGUAGACAGGAUAUCACCAUGACAGUGAUGUUGUCAUGCUCGAUUUGAGGAAACUCAGAUCGUGAGAAGGGUCUAACGACU [FMN B SS t7] | 136 nM |
| UGACUGGACUGAAGGAGCGGGCGAGACAAAGUCUCGAACUCCUAGUGAUGUUAGGAAAUAACCCAGGUAGGUCGCAGUCUAGUCU [ArgBS 7 #SwitchBubble #StaticStem #DoubleMagnet] | 149 nM |
| GGCAGUGAUGUUGCCUAAGCAAUGCAUGCGGAGGAUAUUCGUUUGGGAAGAAGGCCGCAGCGUUCUCUCGAGUGAUGUUCGAGUA [Same State FMN A GF 20] | 155 nM |
| UGACUACAGGAAUAAUAAUCCUAGUGAUGUUAGGAUAUGCUGAUAAGCAGAAGGAACUGAGAUCGAAAGAUCUCAAAAGUAGUCU [FmnAX 28 Mat Inspired #SwitchBubble #StaticStem #K4Early] | 139 nM |
| GCUAGGCAUGCAGGAUAUCGUGGAGUGAUGUUCCGUUGGCUGCUAGCGGAAAACGCUAGCAGCCUACGAGAAGGGCAUGCCUAGC | 192 nM |
| AGUACAACUGCGGCCGCCACUCAACGCAGAUCAAAGAUCUGCAUUCACUCAGUGAUGUUGAGUGAGAGGACCGGGCAGUUGUACA [Omei KL Tryp B SS B v3] | 855 nM |
| AACUCUCAGACAUCUGAGUGAUGUUCAGGCCGAGGACCGGUACGGCCGCCACUCGGGUCUGAGAGAGGUUAUCAAAGAUAGCCAA [Omei KL Tryp A SS A v4] | 570 nM |
